protocol-summary: protein stability index of a GFP-peptide fusion (yeast GPS) (PSI 1-4); higher = more stable; sorted into four equal gates, so the index is relative within each strain
assay-setup: san1∆
Please go through the items and note down their protein stability index.
The response must contain the number and no unit.

Q. Supply measured protein stability index of DDVRRAAVIALGFVLLR [RPN2] in your reply.
A. 1.99

Q. Annotate the sequence ISLYFNDILDELLCGMA [ECM29] with its measured protein stability index.
A. 2.04

Q. Please list protein stability index recorded for the sequence KDNAKISNNLALVFAAL [SRP68]
A. 1.97

###

protocol-summary: protein stability index of a GFP-peptide fusion (yeast GPS) (PSI 1-4); higher = more stable; sorted into four equal gates, so the index is relative within each strain
assay-setup: doa10∆
I'd appreciate it if you could supply protein stability index values for the items below.
Please state the value as a number alone, without comment.

Q. Please look at this sequence and report its protein stability index: PGHSLLLSIKLPGKVNT [SNF5]
A. 2.37

Q. Tell me measured protein stability index for FKSLIDEDLLDTQTFSV [YGL172W/NUP49] please.
A. 3.17

Q. Name the recorded protein stability index of the sequence listed here: LHVVITLLREVVFTRLV [CSN12]
A. 1.26

Q. Provide only the value of recorded protein stability index for TDNVSMYPSPTGVMIGI [PRP8]
A. 2.65

Q. // fetch protein stability index given entry KKHLKRLAAPHHWLLDK [RPS4A]
A. 2.78

###

protocol-summary: protein stability index of a GFP-peptide fusion (yeast GPS) (PSI 1-4); higher = more stable; sorted into four equal gates, so the index is relative within each strain
assay-setup: ubr1∆
Field: protein stability index. Provide a value for each of the sequences that follow.
API note: the answer field is a bare number with no unit suffix.

Q. Retrieve protein stability index measured for SNIEQTESLRVENSVLI [YIL149C/MLP2] and print it.
A. 3.07

Q. Give the measured protein stability index for SDSNANAAVAGVANTDT [SWI3]
A. 2.91

Q. Consider the sequence DLKSKGLIPADATFAGH [FAS1] and give its recorded protein stability index.
A. 2.98

Q. Supply protein stability index value. Item: GYIKNNKKIYQWNKLTS [POP6]
A. 3.06

Q. Please report protein stability index for the following sequence: VVAAAEDDDNEQHEEKA [QCR6]
A. 3.07

###

protocol-summary: protein stability index of a GFP-peptide fusion (yeast GPS) (PSI 1-4); higher = more stable; sorted into four equal gates, so the index is relative within each strain
assay-setup: pdr5∆
measured-metric: protein stability index
Just the number.

Q. Respond only with protein stability index recorded for VTLVNGKRRMNPGPSVQ [RPS30A]
A. 2.94

Q. For CTLTADGAYALSASWDK [ASC1] , write its protein stability index.
A. 3.25

Q. Return value of protein stability index for input NRDPVKHAEFDLSLLGY [SIR2] , no commentary.
A. 2.75

Q. Respond only with protein stability index recorded for STLGDCLGIKDEEMLTS [GAL11]
A. 3.11

Q. Give me measured protein stability index, please, for this sequence: MARTKQTARKSTGGKAP [HHT1]
A. 3.25

Q. Return value of protein stability index for input GRSDSNTEEKAELQSNL [YGL100W/SEH1] , no commentary.
A. 1.64

###

Kindly state protein stability index for each of the entries shown.
protocol-summary: protein stability index of a GFP-peptide fusion (yeast GPS) (PSI 1-4); higher = more stable; sorted into four equal gates, so the index is relative within each strain
assay-setup: pdr5∆
// return just the number, without any unit appended

Q. Retrieve protein stability index measured for GEKNFTSAHLKLKEMQK [SMC4] and print it.
A. 3.35

Q. Answer with the recorded protein stability index for the sequence listed here: QYQLLYNLKNDILTNLE [SWI1]
A. 1.89

Q. Provide measured protein stability index value, entry: TKISTLAVKVHGGSRYA [QCR2]
A. 1.64

Q. Give me measured protein stability index, please, for this sequence: LKSASKETAPVIDTLAA [RPL28]
A. 2.41

Q. Give protein stability index for EGEYELTEAVEDGPRPF [RPL5]
A. 3.31

Q. Return reported protein stability index. Input sequence: ANANANATANATANATA [SNF11]
A. 3.37

Q. Note down protein stability index recorded for TIRLWECGTGTTIHTFN [RPN14]
A. 2.4

Q. Entry TSPGFGVSSPGFSPTSP [RPO21] needs its protein stability index filled in; supply it.
A. 2.66

Q. Give me measured protein stability index, please, for this sequence: QLIKQSIKNNVAMCFVI [SNU114]
A. 1.69

Q. Report measured protein stability index; entry is KIQFHIHFADVAHITTK [RGR1]
A. 2.95

Q. Using the record for LPEKVNFRTMQQQQMQQ [SSN2] , state its measured protein stability index.
A. 2.75

Q. Give protein stability index for EYYVMMDFANLWVFQAF [SRB8]
A. 2.37

Q. Using the record for ANDHDESIDVDMDAESN [SMC3] , state its measured protein stability index.
A. 2.37

Q. Output protein stability index of PQPLFMEDPPSTVSGEL [YMR153W/NUP53]
A. 3.64

Q. Output protein stability index of KPAFSFGAKSDEKKDSD [YJL041W/NSP1]
A. 3.25

Q. Please give measured protein stability index of the following entry: YNRYRDLMISCLMNQET [MTR3]
A. 2.56

Q. Tell me measured protein stability index for NSINNNNIKNGTNNISQ [YDL088C/ASM4] please.
A. 2.75

Q. Answer with the recorded protein stability index of LPPPEDVAFLKTAYSIY [RPN1] only.
A. 2.36

Q. Fill in reported protein stability index for this entry: KNLISRINTLPQVQLPV [ECM29]
A. 2.86

Q. Report measured protein stability index; entry is IKGIREYEEWQKSVSLL [YDL116W/NUP84]
A. 2.66

Q. Given the sequence YLVEAPWNDDYPFLLSF [YML103C/NUP188] , write its reported protein stability index.
A. 1.69

Q. Give the reported value of protein stability index for this record: ERGLKVKEYQLRDRNFS [RPL11A]
A. 2.63

Q. Quote protein stability index reported for LEIRNKICSSEMINEQK [RGR1] please.
A. 2.91

Q. Give the reported protein stability index for this sequence. AWRTLVGVSHTNEEVRN [CYT1]
A. 2.98

Q. Determine from records and report protein stability index for NTHNKSTKRVTKHPSLK [POP7]
A. 2.78

Q. Give the value of protein stability index reported for the following: SRKRGGENVFLKRISDG [SIR3]
A. 3.29

Q. Identify measured protein stability index corresponding to LSDRITGNFIIPSGNVW [PRP8]
A. 3.1

Q. Dear colleague, please send me the reported protein stability index for EDFQKRQQKLLEDQQRQ [SWI1] when you can.
A. 3.16

Q. Answer with reported protein stability index of SEDHSFRKVKLRVDEVQ [RPS1B]
A. 2.96

Q. Please indicate protein stability index recorded for YKRQKSSLLYTYDENDD [ESC2]
A. 1.42

Q. Answer with the recorded protein stability index for the sequence listed here: VCMHCGKLLLDEHNELM [RPO21]
A. 2.94

Q. Quick one: give measured protein stability index for SVSSPIELNFDAVKDFK [QCR2]
A. 1.67

Q. Supply protein stability index value. Item: SAAELERLDKDKDRDTR [SNF5]
A. 1.46

Q. Fill in reported protein stability index for this entry: KTIEVTAEINCFMHLLV [RPN3]
A. 1.77

Q. Report measured protein stability index; entry is VRCVNCSKSIPKDKAIK [RPS26A]
A. 3

Q. Entry SLRETNTTDPLGHTKAA [SIR2] needs its protein stability index filled in; supply it.
A. 2.7

Q. Annotate the sequence SPLDIYSDEASAQKKRF [RPS2] with its measured protein stability index.
A. 2.86

Q. Give reported protein stability index value for SLTEATKTNVDNNSKAE [YLR335W/NUP2]
A. 3.35

Q. Look up and state reported protein stability index for IVDDKQEMIDILETIFR [DIB1]
A. 3.17

Q. Kindly indicate its recorded protein stability index. Item: GQNCLDIDGIMDNPRKL [SNU114]
A. 3.43

Q. Look up protein stability index of KGEQIAIFPYQDPIFGS [ECM29] and report it.
A. 2.28

Q. Note down protein stability index recorded for RILSTLDRELLKPSMSV [RPT3]
A. 2.73

Q. Return protein stability index for the following sequence: CVRVQLIKNGKKVTAFV [RPS23A]
A. 2.66

Q. Recall and state the measured protein stability index for RRYKLLTATPNSINKTT [POP1] .
A. 2.38
